Data provenance is patent US20090042874A1.

System: human 5HT1A receptors (Homo sapiens, UniProt P08908) | Read-out: Ki
Sequence (P08908 whole entry): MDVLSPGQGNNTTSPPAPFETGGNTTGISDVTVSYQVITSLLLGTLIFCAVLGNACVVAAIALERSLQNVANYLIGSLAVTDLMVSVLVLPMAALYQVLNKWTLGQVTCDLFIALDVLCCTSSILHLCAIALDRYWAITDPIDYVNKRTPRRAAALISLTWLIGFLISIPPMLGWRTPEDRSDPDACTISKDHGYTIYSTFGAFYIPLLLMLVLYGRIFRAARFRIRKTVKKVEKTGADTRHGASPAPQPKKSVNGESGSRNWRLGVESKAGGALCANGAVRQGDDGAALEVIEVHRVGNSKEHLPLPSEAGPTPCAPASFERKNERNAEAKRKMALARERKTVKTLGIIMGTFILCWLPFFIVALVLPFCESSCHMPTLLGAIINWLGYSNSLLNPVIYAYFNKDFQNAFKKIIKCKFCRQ
Structures can show the parent of a compound that is named as a salt.

# COMPOUND, Ki, pM
data = [
    ("Cc1ccc2c3c(ccc2n1)OC[C@H](CN1CCC(Cc2ccc4c(c2)NC(=O)CO4)CC1)O3 [Example 2, dihydrochloride]", 160),
    ("Cc1ccc2c3c(ccc2n1)OC[C@H](CN1CCCC(Cc2ccc4c(c2)N(C)C(=O)CO4)C1)O3 (stereo partly shown) [Example 15, dihydrochloride salt]", 680),
    ("Cc1ccc2c3c(ccc2n1)OC[C@H](CNC1CCN(c2ccc4c(c2)NC(=O)CO4)CC1)O3 [Example 18, dihydrochloride salt]", 930),
    ("Cc1ccc2c3c(ccc2n1)OC[C@H](CN1CCC(Oc2ccc4c(c2)N(C)C(=O)CO4)CC1)O3 [Example 5, dihydrochloride salt]", 540),
]
